Data origin: patent US7547710B2

target: Caco-2-derived dipeptidyl peptidase IV (Homo sapiens); construct: A dipeptidyl peptidase IV crude enzyme solution was prepared from cultured Caco-2 (ATCC HTB-37) cells; endogenous in cells; Triton X-100 extract, Sephadex G-200 fractions; test: Determination of Caco-2-derived dipeptidyl peptidase IV inhibitory activity; settings: Caco-2 crude enzyme solution, substrate Gly-Pro-p-NA, 37° C., absorbance 405 nm after 0 hr. and 3 hrs.
Sequence (P27487 whole entry): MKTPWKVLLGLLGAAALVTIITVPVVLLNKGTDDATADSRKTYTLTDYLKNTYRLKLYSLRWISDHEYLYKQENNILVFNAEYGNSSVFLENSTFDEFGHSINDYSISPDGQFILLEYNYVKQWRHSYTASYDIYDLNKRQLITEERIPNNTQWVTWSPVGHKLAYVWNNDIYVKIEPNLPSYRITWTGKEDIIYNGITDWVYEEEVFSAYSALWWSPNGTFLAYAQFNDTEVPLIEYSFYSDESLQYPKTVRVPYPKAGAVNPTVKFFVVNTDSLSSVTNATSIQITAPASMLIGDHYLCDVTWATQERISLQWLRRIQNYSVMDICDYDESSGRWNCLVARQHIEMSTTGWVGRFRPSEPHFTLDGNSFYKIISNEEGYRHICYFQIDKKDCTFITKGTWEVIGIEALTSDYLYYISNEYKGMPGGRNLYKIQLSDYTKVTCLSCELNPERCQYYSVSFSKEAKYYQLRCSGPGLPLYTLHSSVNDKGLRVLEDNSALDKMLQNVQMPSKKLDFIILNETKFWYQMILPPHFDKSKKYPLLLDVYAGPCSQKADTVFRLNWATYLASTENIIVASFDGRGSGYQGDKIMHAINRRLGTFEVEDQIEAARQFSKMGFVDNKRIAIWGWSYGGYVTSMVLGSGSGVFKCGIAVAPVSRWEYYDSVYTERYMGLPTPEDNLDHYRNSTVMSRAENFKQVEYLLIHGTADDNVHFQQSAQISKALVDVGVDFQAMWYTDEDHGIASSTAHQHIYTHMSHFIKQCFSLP
testReadout: IC50 (µM)
Field: numeric (µM). Do not append units.

Query string: State the recorded IC50 for this entry: CC(C)Cc1nc2ccc(Cl)cc2c(-c2ccccc2)c1CN
Result string: 0.71

---

Item-by-item account of melting point

Known melting point results, listed for orientation:
Query string: State the recorded melting point for this entry: CC(C)Cc1nc2ccc(Cl)cc2c(-c2ccccc2)c1CN
Result string: 114 to 116 °C

Query string: State the recorded melting point for this entry: COc1ccc2nc(CC(C)C)c(CN)c(-c3ccccc3)c2c1
Result string: 73 to 76 °C

Query string: State the recorded melting point for this entry: NCc1c(CC2CCCC2)nc2ccc(OCC(N)=O)cc2c1-c1ccccc1
Result string: 159 to 160 °C

Others:
Query string: State the recorded melting point for this entry: Cc1ccc(-c2c(CN)c(CC(C)C)nc3ccc(OCc4ccccc4)cc23)cc1
Result string: 119 to 120 °C

Query string: State the recorded melting point for this entry: COC(=O)c1ccc2nc(CC(C)C)c(CN)c(-c3ccccc3F)c2c1
Result string: 138 to 139 °C

Query string: State the recorded melting point for this entry: CC(C)Cc1nc2ccc(Br)cc2c(-c2ccccc2)c1CN
Result string: 129 to 130 °C

Query string: State the recorded melting point for this entry: CC(C)Cc1nc2ccc(OCC(N)=O)cc2c(-c2cccs2)c1CN
Result string: 156 to 157 °C

Query string: State the recorded melting point for this entry: CC(C)Cc1nc2ccc(OCC(N)=O)cc2c(-c2cccc(F)c2)c1CN
Result string: 106 to 109 °C

Query string: State the recorded melting point for this entry: CC(C)Cc1nc2ccc(C#N)cc2c(-c2ccccc2)c1CN
Result string: 128 to 130 °C

Query string: State the recorded melting point for this entry: CC(C)(C)Cc1nc2ccc(OCC(N)=O)cc2c(-c2ccccc2)c1CN
Result string: 152 to 154 °C
